measured-on: CLK4 (human)
procedure-text: KINOMEscan competition binding
assay-conditions: compound 10.0 µM
Measured kinase still bound, per cent of control accompanies every entry in the list below.
Numeric only. Scale: %

Sample records with kinase still bound, per cent of control:
Cc1ccc2nc(NCCN)c3ncc(C)n3c2c1 ... 53
Cc1ccc(NC(=O)c2cccc(C(C)(C)C#N)c2)cc1Nc1ccc2ncn(C)c(=O)c2c1 ... 100

Read off the recorded kinase still bound, per cent of control for CCN1CCN(Cc2ccc(Nc3ncc4c(n3)N(C)c3ccccc3C(=O)N4C)cc2C(F)(F)F)CC1
100

Read off the recorded kinase still bound, per cent of control for CCC(=O)N1CCN(c2ccc(-n3c(=O)ccc4cnc5ccc(-c6cnc7ccccc7c6)cc5c43)cc2C(F)(F)F)CC1
49

This collection of values is drawn from the kinase profiling compilation of Christmann-Franck et al. (2016).
